Measured values drawn from PubChem BioAssay (NCI) for this set.

# System: 786-0 renal
# experiment-notes: NCI-60 one-dose screen, 48 h (100 = growth as untreated, 0 = no growth, -100 = all killed)
# condition-parameters: 10 µM
This is part of a sample that, as a whole, favours compounds with a hit. Of some 83,000 tested, about 20% had one in any assay.
Could you please report measured growth for the items listed next?
# output: bare number, implied unit %

INPUT: Give the measured growth for Clc1ccc(C2=NN=C3C(Cc4ccccc4)=Nc4ccccc4N3C2)cc1
OUTPUT: 64.1

INPUT: Give the measured growth for CS(=O)(=O)c1nccc(-c2c(-c3cccc(OCc4ccc(F)cc4)c3)nc3sccn23)n1
OUTPUT: 79.5

INPUT: Give the measured growth for COc1ccc(-c2nn(-c3cccc(Cl)c3)cc2-c2cc(-c3ccccc3)nc(N)n2)cc1
OUTPUT: 60.1

INPUT: Give the measured growth for COc1ccc(Nc2cnc3cc(NS(=O)(=O)c4ccc(C)cc4)ccc3n2)cc1
OUTPUT: 97

INPUT: Give the measured growth for Nc1ccc(/C=N/Nc2ccnc3c(O)cccc23)c2cccnc12
OUTPUT: 50.7

INPUT: Give the measured growth for CCCCCOC(=O)Nc1nc(=O)n(C2O[C@H](C)[C@@H](O)[C@H]2O)cc1F (stereo not given in full)
OUTPUT: 106

INPUT: Give the measured growth for O=C(O)c1ccc(-n2cc(CNc3ccc(Cl)cc3)c(-c3ccccc3)n2)cc1
OUTPUT: 94.7

INPUT: Give the measured growth for NC1=NC(c2ccccc2)C2=C(N1)/C(=C/c1ccccc1)CCC2 (stereo not given)
OUTPUT: 101

INPUT: Give the measured growth for COc1cccc(N=Nc2cccc(OC)c2)c1
OUTPUT: 91.3

INPUT: Give the measured growth for Nc1nc(-c2cccnc2)nc2c1sc(=S)n2-c1ccccc1
OUTPUT: 98.7

INPUT: Give the measured growth for O=C1c2ccccc2C(=O)c2c1ccc(C(Br)Br)c2Cl
OUTPUT: -78.9

INPUT: Give the measured growth for CCN(CC)CCCC(C)N=C(C1=C(C(=NC(C)CCCN(CC)CC)c2cccc(OC)c2)C(=O)NC1=O)c1cccc(OC)c1 (stereo not given)
OUTPUT: -8.78

INPUT: Give the measured growth for COc1ccc2nc3cc(Cl)ccc3c(NCCCNCCO)c2c1
OUTPUT: 6.46

INPUT: Give the measured growth for CC(C)(C)OC(=O)N1CCc2c(sc3ncnc(N/N=C/c4cccc5ccccc45)c23)C1
OUTPUT: 16.9

INPUT: Give the measured growth for COc1cc(-c2csc(NC(=O)Nc3ccc(Cl)c(C(F)(F)F)c3)n2)cc(OC)c1OC
OUTPUT: -12.4

INPUT: Give the measured growth for O=C(CCl)Nc1ccc(Cc2ccc(NC(=O)CCl)cc2)cc1
OUTPUT: -20.2

INPUT: Give the measured growth for CCOC(=O)c1sc2ncnc(Nc3ccc4c(cnn4C(=O)Nc4ccccc4)c3)c2c1C
OUTPUT: -2.26

INPUT: Give the measured growth for Nc1ncc(-c2cnn(C3CCNCC3)c2)cc1-c1nc2ccccc2o1
OUTPUT: 19.5

INPUT: Give the measured growth for O=C(N/N=C/c1ccc(Cl)cc1)c1ccccc1Nc1cccc(C(F)(F)F)c1
OUTPUT: 86

INPUT: Give the measured growth for CC(C)(C)c1nn(-c2ccccc2)c2c1CC1(CN2Cc2ccc(Cl)cc2)C(=O)c2ccccc2C1=O
OUTPUT: 86.7
